# pKd per entry
Molecular target: T1, ZIKV (prM80E) with a C-terminal myc-myc-hexahistidine tag (Zika virus, UniProt A0A024B7W1 104-694)
T1 construct: also called ZIKV (prM80E)-mmH; ZIKV-mmH
Test: SPR, mAb captured, 37C
pKd: −log10 of the molar value.

[
  {
    "binder": "H4H25591P (antibody, V domains shown) VH: QVQLVESGGGVVQPGRSLRLSCAASGFTFSYSGMHWVRQAPGKGLEWVAVISYDGINKYYADSVKGRFTISRDNSKNTLYLQMNSLRPEDTAVYYCAKDRGGRFDPWGQGTLVTVSS VL: DIQMTQSPSSLSASVGDRVTITCRASQGISNYLAWYQQKPGKVPNLLIYGASTLHSGVPSRFSGSGSGTDFTLTISSLQPADVATYYCQKYNSAPLTFGGGTKVEIK",
    "pKd": 8.08
  },
  {
    "binder": "H4H25592P (antibody, V domains shown) VH: QVQLVESGGGVVQPGRSLRLSCAASGFTFSYSGMHWVRQAPGKGLEWVAVISYDGSNKYYADSVKGRFTISRDNSNNILYLQMNSLRAEDTAVYYCAKDWGGRFDPWGQGTLVTVSS VL: DIQMTQSPSSLSASVGDRVTITCRASQGISSYLAWYQQIPGKVPKLLIYAASTLHSGVPSRFSGSGSGTDFTLTISSLQPADVATYYCQKYNSAPLTFGGGTKVEIK",
    "pKd": 8.99
  },
  {
    "binder": "H4H25637P (antibody, V domains shown) VH: QLQLQESGPGLVKPSETLSLTCTVSGDSISSSNYFWGWIRQPPGKGLEWIGNIYYSGDTYYNPSLKSRVTMSVDTSKKQFSLKLRSVTAADTAVYYCARGRPYYDFWSGYFDYWGQGTLVTVSS VL: EIVLTQSPGTLSLSPGERATLPCRASQSVSSSYLAWYQQKPGQAPRLLIYGASSRATGIPDRFRGSGSGTDFTLTISRLEPEDFAVYYCQQYGTAPWTFGQGTKVEIK",
    "pKd": 8.00
  }
]
